- Test system: DRAK2;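 also: KINOMEscan kinase panel screen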
- Construct: gene STK17B
- setupConditions: concentration: 1 μM, replicates: in singlicate; n = 1
experimentalEndpoint: %Inh (%)
Hi! Could you send only the number? It should be in %, unit omitted.

Nc1ncnc2occ(-c3ccc4c(c3)CCN4C(=O)Cc3cc(F)ccc3F)c12 [GSK2645446]    0
CNc1nc(-c2ccc3c(N)n[nH]c3c2)cc(N2C[C@@H](C(=O)Nc3ccccc3)CC[C@H]2C)n1 [GSK2298859]    80
CN1c2ccc(-c3ccc(C(N)=O)cc3)cc2-c2[nH]ncc2S1(=O)=O    15

// next item, %Inh requested
**Query** Tell me measured %Inh for COC(=O)C(Cc1ccccc1)NC(=O)NC1CCN(c2ccnc(Nc3ccc(F)cc3)n2)C1 (stereo not shown) [GSK1379714] please.
**Result** 0
